Target: SEAP-His (Homo sapiens, UniProt P05187)
Sequence (P05187 23-511 limits assumed): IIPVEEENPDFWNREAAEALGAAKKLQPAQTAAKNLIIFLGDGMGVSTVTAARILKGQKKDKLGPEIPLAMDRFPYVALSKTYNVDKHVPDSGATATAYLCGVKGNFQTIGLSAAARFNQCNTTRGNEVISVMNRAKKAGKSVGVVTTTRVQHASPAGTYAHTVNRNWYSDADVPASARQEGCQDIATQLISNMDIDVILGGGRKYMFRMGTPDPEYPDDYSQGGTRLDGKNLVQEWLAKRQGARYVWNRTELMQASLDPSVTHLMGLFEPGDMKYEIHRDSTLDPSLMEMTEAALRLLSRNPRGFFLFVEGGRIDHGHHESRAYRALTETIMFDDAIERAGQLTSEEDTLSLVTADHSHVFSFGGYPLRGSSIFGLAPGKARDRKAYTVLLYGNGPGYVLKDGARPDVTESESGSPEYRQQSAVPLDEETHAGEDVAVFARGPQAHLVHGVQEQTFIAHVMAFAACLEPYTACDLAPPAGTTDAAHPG
Test: Selectivity ELISA of humanized antibodies for human Eph receptor
Format: binding
Conditions: coated protein 1 nM
The molecules listed here are annotated with their SEAP-His: absorbance at 450 nm, percentage with respect to hEphA4-SEAP-His as 100%.
Kindly provide the numeric value in % only, without the unit symbol.

Record excerpt, results attached:
stdin: Using the record for 83 (antibody, V domains shown, constant regions without entry; synthetic humanized antibody light chain variable region sequence; synthetic humanized antibody heavy chain variable region sequence) VL: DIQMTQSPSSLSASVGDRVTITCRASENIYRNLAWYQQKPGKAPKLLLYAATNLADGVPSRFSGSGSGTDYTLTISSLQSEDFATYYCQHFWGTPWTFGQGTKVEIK VH: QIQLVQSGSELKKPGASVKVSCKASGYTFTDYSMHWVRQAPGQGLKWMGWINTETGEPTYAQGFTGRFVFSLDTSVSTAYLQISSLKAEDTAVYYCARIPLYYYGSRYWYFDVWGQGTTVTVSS , report its SEAP-His: absorbance at 450 nm, percentage with respect to hEphA4-SEAP-His as 100%.
stdout: 6.5

stdin: Can you share its SEAP-His: absorbance at 450 nm, percentage with respect to hEphA4-SEAP-His as 100%? I mean this molecule: 73 (antibody, V domains shown, synthetic humanized antibody heavy chain variable region sequence; synthetic humanized antibody light chain variable region sequence) VH: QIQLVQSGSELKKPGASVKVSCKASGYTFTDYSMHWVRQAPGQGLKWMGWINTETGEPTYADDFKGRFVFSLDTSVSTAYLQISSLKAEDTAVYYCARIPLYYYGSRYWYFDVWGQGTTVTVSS VL: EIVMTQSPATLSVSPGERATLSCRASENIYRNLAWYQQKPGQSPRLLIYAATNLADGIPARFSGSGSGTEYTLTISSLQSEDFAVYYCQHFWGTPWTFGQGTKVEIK
stdout: 5.8

stdin: Data request, read-out SEAP-His: absorbance at 450 nm, percentage with respect to hEphA4-SEAP-His as 100%, for 77 (antibody, V domains shown, synthetic humanized antibody heavy chain variable region sequence; synthetic humanized antibody light chain variable region sequence) VH: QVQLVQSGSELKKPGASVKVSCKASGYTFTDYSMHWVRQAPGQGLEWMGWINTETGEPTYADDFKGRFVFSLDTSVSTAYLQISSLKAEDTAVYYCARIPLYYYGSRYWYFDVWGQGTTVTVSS VL: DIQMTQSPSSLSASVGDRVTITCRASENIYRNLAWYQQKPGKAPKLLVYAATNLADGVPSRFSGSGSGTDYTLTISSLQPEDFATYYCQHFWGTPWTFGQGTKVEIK
stdout: 4.7

In the following, a different molecule is considered.
stdin: Endpoint output: SEAP-His: absorbance at 450 nm, percentage with respect to hEphA4-SEAP-His as 100% of 87 (antibody, V domains shown, constant regions without entry; synthetic humanized antibody light chain variable region sequence; synthetic humanized antibody heavy chain variable region sequence) VL: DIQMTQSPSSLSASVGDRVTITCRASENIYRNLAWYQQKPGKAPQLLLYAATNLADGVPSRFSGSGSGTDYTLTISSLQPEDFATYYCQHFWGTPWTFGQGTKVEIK VH: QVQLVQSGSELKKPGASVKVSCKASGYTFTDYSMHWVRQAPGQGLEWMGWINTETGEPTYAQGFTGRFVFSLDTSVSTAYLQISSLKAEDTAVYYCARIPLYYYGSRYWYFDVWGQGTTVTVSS . Value?
stdout: 5.5
